src = patent US11439707B2

- TEST PROTOCOL: absorption spectrum (maximum absorption wavelength, molar extinction coefficient)
- Assay type: physicochemical
Please respond with reported molar extinction coefficient for every item in the list.

Endpoint output: molar extinction coefficient of COc1c2c3c4c(c(NC(CC(=O)O)C(=O)O)c(=O)c5c(NC(CC(=O)O)C(=O)O)cc(OC)c(c6c(OC)cc(O)c(c1=O)c63)c54)C=C(C)C2C(C)=O (stereo not drawn) [HB-27c] . Value?
21,500 M^−1cm^−1

And then COc1c(O)c2c(=O)cc(OC)c3c4c(OC)cc(=O)c5c(NCCOC(=O)N6CC(=O)NC(=O)C6)c(NCCOC(=O)N6CC(=O)NC(=O)C6)c6c(c(c1C(C(C)=O)C(C)=C6)c23)c54 (stereo not drawn) [HB-40a] , what is it?
31,000 M^−1cm^−1

And then COCCOCCOCCOCCOCCOCCOC(=O)C1CCC(Nc2c3c4c5c(c(OC)c(=O)c6c(NC7CCC(C(=O)OCCOCCOCCOCCOCCOCCOC)C7)cc(OC)c(c7c(OC)cc(O)c(c2=O)c74)c65)C(C(C)=O)C(C)=C3)C1 (stereo not drawn) [HB-19d-PEG6] , what is it?
31,000 M^−1cm^−1

And then `COCCOC(=O)CCCNc1c(NCCCC(=O)OCCOC)c2c(=O)cc(OC)c3c4c(OC)cc(=O)c5c(O)c(OC)c6c(c(c1C=C(C)C6)c23)c54` , what is it?
30,000 M^−1cm^−1

And then COCCOCCOCCOCCOCCOCCOCCN1C(=O)CN(C(=O)OCCNc2c(O)c3c(=O)cc(OC)c4c5c(OC)cc(=O)c6c(NCCOC(=O)N7CC(=O)N(CCOCCOCCOCCOCCOCCOCCOC)C(=O)C7)c(OC)c7c(c(c2C=C(C)C7C(C)=O)c34)c65)CC1=O (stereo not drawn) [HB-40b-PEG6] , what is it?
31,000 M^−1cm^−1

And then COc1c(O)c2c(=O)cc(OC)c3c4c(OC)cc(=O)c5c(NCc6ccccn6)c(NCc6ccccn6)c6c(c(c1C(C(C)=O)C(C)=C6)c23)c54 (stereo not drawn) [HB-38a] , what is it?
19,000 M^−1cm^−1

And then COCCOCCOCCOCCOCCOCCOCCOCCOCCOCCOCCOCCOCCC(=O)OC1CCC(Nc2c3c4c5c(c(OC)c(=O)c6c(O)cc(OC)c(c7c(OC)cc(NC8CCC(OC(=O)CCOCCOCCOCCOCCOCCOCCOCCOCCOCCOCCOCCOCCOC)CC8)c(c2=O)c74)c65)C(C(C)=O)C(C)=C3)CC1 (stereo not drawn) [HB-17c-PEG12] , what is it?
33,500 M^−1cm^−1

And then COc1c(NC(C(=O)O)C(C)C)c2c(=O)cc(OC)c3c4c(OC)cc(=O)c5c(O)c(NC(C(=O)O)C(C)C)c6c(c(c1C(C(C)=O)C(C)=C6)c23)c54 (stereo not drawn) [HB-22b] , what is it?
21,000 M^−1cm^−1
